Hello, the source for this data is ChEMBL document CHEMBL6177939, in case you need it.

Test system: Human immunodeficiency virus 1
measurement-notes: Antiviral activity against HIV-1 infected in human MT4 cells
Type: functional, organism-based
experimental-parameters: Human immunodeficiency virus 1, MT4
recorded-metric: EC50 (nM)
Give just the numeric value; nM need not be written.

Qu. For the compound Cc1cccc(C(O)c2c(C(C)C)c(=O)[nH]c(=O)n2COCc2ccccc2)c1 (stereo unspecified) , report EC50.
Ans. 200

====

Listed compounds paired with reported EC50
target-or-system: Hydroxycarboxylic acid receptor 2 (Rattus norvegicus, UniProt Q80Z39)
Sequence (Q80Z39 whole entry): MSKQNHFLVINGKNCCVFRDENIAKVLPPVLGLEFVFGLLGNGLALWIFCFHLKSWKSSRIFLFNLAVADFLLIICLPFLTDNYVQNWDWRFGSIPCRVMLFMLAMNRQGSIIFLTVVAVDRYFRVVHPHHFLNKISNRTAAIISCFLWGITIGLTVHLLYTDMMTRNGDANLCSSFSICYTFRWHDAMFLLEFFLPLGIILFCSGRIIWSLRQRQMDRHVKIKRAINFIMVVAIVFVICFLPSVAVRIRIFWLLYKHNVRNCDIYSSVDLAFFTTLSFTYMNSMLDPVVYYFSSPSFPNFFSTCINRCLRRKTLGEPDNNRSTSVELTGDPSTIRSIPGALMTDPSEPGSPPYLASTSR
measurement-notes: Agonist activity at rat GPR109A transfected in T-REX-CHO cells by cAMP assay
// note: answer is a bare numeric in nM

// known answers, use as guide
Qu. # return recorded EC50 for entry "CCOc1cc(Cl)c(C(=O)NC(=O)Nc2nc3c(s2)C[Si](C)(C)CC3)cc1N1CCOCC1"
Ans. 1200

Qu. Return EC50 (reported value) for this compound: "CCOc1cc(Cl)c(C(=O)NC(=O)Nc2nc3c(s2)CCCC3)cc1-n1cccn1"
Ans. 250

Qu. Supply measured EC50 of CCC[Si]1(c2c(OC)cccc2OC)CCc2nc(NC(=O)NC(=O)c3cc(-n4cccn4)c(OCC)cc3Cl)sc2C1 (stereo not given) in your reply.
Ans. 470

Qu. Quick one: give measured EC50 for CCC[Si]1(c2ccc(OC)cc2)CCc2nc(NC(=O)NC(=O)c3cc(-n4cccn4)c(OCC)cc3Cl)sc2C1 (stereo not given)
Ans. 470

Qu. Complete the entry with EC50 for CCOc1cc(Cl)c(C(=O)NC(=O)Nc2nc3c(s2)C[Si](C)(c2c(OC)cccc2OC)CC3)cc1-n1cccn1 (stereo not given)
Ans. 470

Attention now turns to another entry.
Qu. Please indicate EC50 recorded for CCOc1cc(Cl)c(C(=O)NC(=O)Nc2nc3c(s2)C[Si](c2ccccc2)(c2c(OC)cccc2OC)CC3)cc1-n1cccn1 (stereo not given)
Ans. 470
